The values you see were collected from patent US9376382B2.

Assay comment: Intense light irradiation test (4500LX ± 500LX), stability study
Assay type: physicochemical
Test settings: Day 5
Assay readout: Melting point Day 5

> print(dat)
                            molecule.smiles          result
1  Cc1cc(S(=O)(=O)NCc2ccccc2)c2c(C)ccc(C(C)C)cc1-2  123.5-125.5 °C
2  Cc1cc(S(=O)(=O)NC2CCCCC2)c2c(C)ccc(C(C)C)cc1-2  107.5-108.5 °C

Could you now consider this next compound?
Form: compound = Cc1ccc(NS(=O)(=O)c2cc(C)c3cc(C(C)C)ccc(C)c2-3)cc1 ; Melting point Day 5 = 145.0-147.5 °C

====

Catalogue of hygroscopic rate (%) Day 5 readings, one per entry.
Assay comment: High humidity test (25° C., relative humidity 90% ± 5%), stability study;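 also: samples kept uncovered in sealed humidity desiccators, appearance judged mainly by colour change, melting point on an automatic apparatus, TLC checked for extra spots versus start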
Format: physicochemical
Test settings: RH 90% ± 5%, Day 5
The answer is to be given in %; state only the numeric part.

Some solved cases for reference:
> print(dat)
                                   molecule  recorded.number
1  Cc1ccc(NS(=O)(=O)c2cc(C)c3cc(C(C)C)ccc(C)c2-3)cc1 [4g]             2.01
2  CCNS(=O)(=O)c1cc(C)c2cc(C(C)C)ccc(C)c1-2 [4h]             2.11
3  Cc1cc(S(=O)(=O)[O-])c2c(C)ccc(C(C)C)cc1-2.[Na+] [Azulene sulfonate sodium, reference compound]             3.69
4  Cc1cc(S(=O)(=O)NCC(C)C)c2c(C)ccc(C(C)C)cc1-2 [4e]             1.51
5  Cc1cc(S(=O)(=O)Nc2ccc(N)cc2)c2c(C)ccc(C(C)C)cc1-2 [4l]             1.81

Reported hygroscopic rate (%) Day 5 of Cc1cc(S(=O)(=O)NC(C)C)c2c(C)ccc(C(C)C)cc1-2 [4c] : 1.32

What the record says about COc1ccc(NS(=O)(=O)c2cc(C)c3cc(C(C)C)ccc(C)c2-3)c(OC)c1 [4b] : hygroscopic rate (%) Day 5 is 1.24

For CCCNS(=O)(=O)c1cc(C)c2cc(C(C)C)ccc(C)c1-2 [4f] the molecule record lists hygroscopic rate (%) Day 5 as 1.28

Entry Cc1cc(S(=O)(=O)NCc2ccccc2)c2c(C)ccc(C(C)C)cc1-2 [4j] ; hygroscopic rate (%) Day 5 = 2.08

Kindly note the recorded hygroscopic rate (%) Day 5 for Cc1cc(S(=O)(=O)Nc2cccc3ccccc23)c2c(C)ccc(C(C)C)cc1-2 [4d] , which is 1.61

Memo: Cc1cc(S(=O)(=O)Nc2ccc(Cl)cc2)c2c(C)ccc(C(C)C)cc1-2 [4k] , reported hygroscopic rate (%) Day 5: 1.87

Record Cc1cc(S(=O)(=O)NC2CCCCC2)c2c(C)ccc(C(C)C)cc1-2 [4i] . Reported hygroscopic rate (%) Day 5: 2.35

Lab note: Cc1cc(S(=O)(=O)Nc2cccc(Br)c2)c2c(C)ccc(C(C)C)cc1-2 [4a] gave hygroscopic rate (%) Day 5 of 1.46

====

System: ethanol-induced gastric ulcer
Assay comment: Anhydrous ethanol-induced gastric ulcer in mice
Type: in vivo, Kunming mice
Test settings: Table 6; inhibition rate of ulcer vs model group
Below, each of the molecules is paired with its reported Inhibition rate (%) value.
Form entry: value (%) — number only.

The examples below pair each entry with its known result.
> print(dat)
                                   molecule        assay.readout  recorded.number
1  COC(=O)C(Cc1c[nH]c2ccccc12)NS(=O)(=O)C1=C2C(C)=C=C=C(C(C)C)C=C2C(C)=C1 (stereo not shown)  Inhibition rate (%)            51.23
2  COC(=O)CCNS(=O)(=O)C1=C2C(C)=C=C=C(C(C)C)C=C2C(C)=C1  Inhibition rate (%)            50.78
3  COc1ccc2[nH]c([S+]([O-])Cc3ncc(C)c(OC)c3C)nc2c1 (stereo not shown) [Omeprazole, reference compound]  Inhibition rate (%)            59.41

Alright, here's another molecule for you.
Inhibition rate (%) reported for this molecule Cc1cc(S(=O)(=O)[O-])c2c(C)ccc(C(C)C)cc1-2.[Na+] [Azulene sulfonate sodium, reference compound] : 52.80

====

Assay comment: Intense light irradiation test (4500LX ± 500LX), stability study
Assay type: physicochemical
Test settings: Day 5, cell wraps, first line given
Assay readout: Appearance Day 5

> print(dat)
                                   compound  result
1  Cc1cc(S(=O)(=O)Nc2ccc(Cl)cc2)c2c(C)ccc(C(C)C)cc1-2 [4k]  purple
2  Cc1ccc(NS(=O)(=O)c2cc(C)c3cc(C(C)C)ccc(C)c2-3)cc1 [4g]  purple
3  Cc1cc(S(=O)(=O)NCc2ccccc2)c2c(C)ccc(C(C)C)cc1-2 [4j]    dark
4  CCNS(=O)(=O)c1cc(C)c2cc(C(C)C)ccc(C)c1-2 [4h]    blue

====

Assay comment: High-temperature test (60° C.), stability study;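 also: samples kept uncovered in dishes at 60 °C for up to 10 days and examined on Day 5 and Day 10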
Assay type: physicochemical
Test settings: open-stored, Day 10
Assay readout: Melting point Day 10

Illustrative cases are given below, each with its answer.
> print(dat)
                                   compound         assay.readout          result
1  Cc1cc(S(=O)(=O)Nc2ccc(N)cc2)c2c(C)ccc(C(C)C)cc1-2  Melting point Day 10    88.0-89.0 °C
2  Cc1cc(S(=O)(=O)NC(C)C)c2c(C)ccc(C(C)C)cc1-2  Melting point Day 10  127.5-129.5 °C

Form field Melting point Day 10, entry Cc1cc(S(=O)(=O)Nc2ccc(Cl)cc2)c2c(C)ccc(C(C)C)cc1-2 : 134.0-135.5 °C

Reported Melting point Day 10 for Cc1cc(S(=O)(=O)Nc2cccc3ccccc23)c2c(C)ccc(C(C)C)cc1-2 was 140.0-142.5 °C

Entry Cc1cc(S(=O)(=O)NCC(C)C)c2c(C)ccc(C(C)C)cc1-2 — recorded Melting point Day 10 = 117.5-118.5 °C

====

Assay comment: Intense light irradiation test (4500LX ± 500LX), stability study
Assay type: physicochemical
Test settings: Day 0
// reported Spot numbers on TLC Day 0 per item
Response field accepts a number only; no unit should be typed.

Previously resolved entries follow.
> print(dat)
                                   compound  recorded.number
1  Cc1cc(S(=O)(=O)NC(C)C)c2c(C)ccc(C(C)C)cc1-2                1
2  Cc1cc(S(=O)(=O)[O-])c2c(C)ccc(C(C)C)cc1-2.[Na+] [Azulene sulfonate sodium, reference compound]                1
3  Cc1cc(S(=O)(=O)NCc2ccccc2)c2c(C)ccc(C(C)C)cc1-2                1
4  Cc1ccc(NS(=O)(=O)c2cc(C)c3cc(C(C)C)ccc(C)c2-3)cc1                1

Next item in the queue.
What the record says about Cc1cc(S(=O)(=O)Nc2ccc(Cl)cc2)c2c(C)ccc(C(C)C)cc1-2 : Spot numbers on TLC Day 0 is 1

====

Assay comment: Intense light irradiation test (4500LX ± 500LX), stability study
Format: physicochemical
Test settings: Day 10
Measured Spot numbers on TLC Day 10, listed per entry for reference.
Please reply with the value in numeric form only.

The following compounds have reported results that may help.
> print(dat)
                            molecule.smiles  recorded.number
1  Cc1cc(S(=O)(=O)NCc2ccccc2)c2c(C)ccc(C(C)C)cc1-2                2
2  CCCNS(=O)(=O)c1cc(C)c2cc(C(C)C)ccc(C)c1-2                2
3  Cc1cc(S(=O)(=O)NC2CCCCC2)c2c(C)ccc(C(C)C)cc1-2                1
4  Cc1cc(S(=O)(=O)NC(C)C)c2c(C)ccc(C(C)C)cc1-2                2
5  COc1ccc(NS(=O)(=O)c2cc(C)c3cc(C(C)C)ccc(C)c2-3)c(OC)c1                1

Measured Spot numbers on TLC Day 10 of CCNS(=O)(=O)c1cc(C)c2cc(C(C)C)ccc(C)c1-2 : 2

Notebook: Cc1cc(S(=O)(=O)Nc2cccc(Br)c2)c2c(C)ccc(C(C)C)cc1-2 , Spot numbers on TLC Day 10 read as 1

Reported Spot numbers on TLC Day 10 for Cc1cc(S(=O)(=O)Nc2ccc(N)cc2)c2c(C)ccc(C(C)C)cc1-2 was 1

Record Cc1cc(S(=O)(=O)Nc2ccc(Cl)cc2)c2c(C)ccc(C(C)C)cc1-2 . Reported Spot numbers on TLC Day 10: 1

Spot numbers on TLC Day 10 reading for Cc1ccc(NS(=O)(=O)c2cc(C)c3cc(C(C)C)ccc(C)c2-3)cc1 : 2
